# TARGET ENTITY: N-terminally FLAG-tagged PARP2 (amino acids 1-583) (Homo sapiens, UniProt Q9UGN5)
# Construct: N-terminally FLAG-tagged PARP2 (amino acids 1-583)
# Sequence (Q9UGN5 whole entry, the tested form may be a part): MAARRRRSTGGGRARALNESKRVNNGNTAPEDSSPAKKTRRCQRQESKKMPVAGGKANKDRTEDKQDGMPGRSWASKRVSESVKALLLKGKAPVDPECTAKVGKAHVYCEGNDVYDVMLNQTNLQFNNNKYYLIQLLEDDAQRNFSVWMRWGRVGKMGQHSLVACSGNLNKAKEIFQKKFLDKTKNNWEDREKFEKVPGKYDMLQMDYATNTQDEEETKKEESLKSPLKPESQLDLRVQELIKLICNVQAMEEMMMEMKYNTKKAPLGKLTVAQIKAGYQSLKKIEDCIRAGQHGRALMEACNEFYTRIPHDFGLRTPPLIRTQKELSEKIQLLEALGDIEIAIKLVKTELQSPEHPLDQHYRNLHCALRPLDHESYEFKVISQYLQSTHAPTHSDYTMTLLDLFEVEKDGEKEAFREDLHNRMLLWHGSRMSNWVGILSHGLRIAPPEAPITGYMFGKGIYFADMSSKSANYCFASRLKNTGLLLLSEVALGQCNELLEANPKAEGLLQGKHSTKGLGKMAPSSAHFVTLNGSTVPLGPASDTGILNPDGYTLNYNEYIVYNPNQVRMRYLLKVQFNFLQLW
# PROTOCOL DESCRIPTION: PARP2 probe displacement HTRF assay
# Assay type: binding
# CONDITION DESCRIPTION: binned Kd, PARP2 probe displacement HTRF
EXPERIMENTAL ENDPOINT: Kd

Please review the following examples before continuing.
CNC(=O)c1ccc(N2CCC(N3CCC(c4nc5cccc(F)c5c(=O)[nH]4)C3)CC2)cn1 (single isomer, unassigned) [Compound 101b]
100 to 1000 nM
CNC(=O)c1ccc(N2CCC(N3CCCC(c4ccc(CC(F)(F)F)c(=O)[nH]4)C3)CC2)cn1 (single isomer, unassigned) [Compound 169b]
> 10000 nM
CNC(=O)c1ccc(N2CCC(N3CCC(c4nc5c(c(=O)[nH]4)CCCC5)C3)CC2)cn1 (single isomer, unassigned) [Compound 155a]
100 to 1000 nM
CNC(=O)c1ncc(N2CCC(N3CCC(c4cc5cccc(F)c5c(=O)[nH]4)C3)CC2)cn1 (racemic)
100 to 1000 nM
CNC(=O)c1ccc(N2CC(N3CCCC(c4nc5ccccc5c(=O)[nH]4)CC3)C2)cn1 (single isomer, unassigned) [Compound 145b]
1000 to 10000 nM

What value of Kd has been recorded for this entry: CNC(=O)c1ccc(N2CCC(N3CCC(c4nc5sc6c(c5c(=O)[nH]4)CCC6)C3)CC2)cn1 (single isomer, unassigned) [Compound 189a] 100 to 1000 nM
